Reported EC50 hGIPR 100% hP (CreLuc) values follow for various binders
# Assayed target: T1, human GIP receptor (human, UniProt P48546 22-466)
# T1 sequence (looked up): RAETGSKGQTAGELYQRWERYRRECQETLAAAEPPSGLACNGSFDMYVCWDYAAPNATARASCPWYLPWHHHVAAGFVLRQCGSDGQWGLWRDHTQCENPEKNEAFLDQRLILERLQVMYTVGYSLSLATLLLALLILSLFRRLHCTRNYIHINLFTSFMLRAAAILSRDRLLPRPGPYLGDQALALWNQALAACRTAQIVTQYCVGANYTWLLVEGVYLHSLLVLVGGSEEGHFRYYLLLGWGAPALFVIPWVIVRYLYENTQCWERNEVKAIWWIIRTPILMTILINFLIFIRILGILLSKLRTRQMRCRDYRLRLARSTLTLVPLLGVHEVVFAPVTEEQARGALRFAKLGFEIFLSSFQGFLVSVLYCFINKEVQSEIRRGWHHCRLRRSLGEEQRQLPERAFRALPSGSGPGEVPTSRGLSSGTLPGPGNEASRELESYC
# Protocol description: cell-based or functional assay
Starred links: 1 amine or outer side, 2 acyl side, 3 side chain; linkers in the order of their positions; H or OH if unused. Non-standard residues stand in square brackets, D forms with d. Groups on a side chain read outwards from the residue. No end group written: not given here. *: point of attachment. C20 diacid = O=C(O)CCCCCCCCCCCCCCCCCCC(=O)*; C18 diacid = O=C(O)CCCCCCCCCCCCCCCCC(=O)*; γGlu = O=C(O)[C@H](CCC(=O)[*:2])N[*:1]; εLys = N[C@@H](CCCCN[*:1])C(=O)[*:2]; AEEA = NCCOCCOCC(=O)O; Aib = CC(C)(N)C(=O)O; Ahx = NCCCCCC(=O)O; OEG = OEG spacer
Form entry: value (nM) — number only.

Sample answers from the record:
- Binder: "Y[Aib]EGTFTSDYSI[Aib]LEKQAQ[Aib]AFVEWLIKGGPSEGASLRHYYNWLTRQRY-NH2 (not fully specified (residue 28); also: TFA salt) [Compound 286]"
  Metric name: "EC50 hGIPR 100% hP (CreLuc)"
  Recorded measurement: 2.03
- Binder: "Y[Aib]EGTFTSDYSI[Aib]LEKQAQ[Aib]AFVQWLIK([γGlu-γGlu-γGlu-γGlu-C18 diacid])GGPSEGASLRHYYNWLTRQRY-NH2 (also: TFA salt) [Compound 268]"
  Metric name: "EC50 hGIPR 100% hP (CreLuc)"
  Recorded measurement: 1.01
- Binder: "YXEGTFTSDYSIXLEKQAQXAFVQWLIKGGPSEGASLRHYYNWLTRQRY (Aib at 2, 13, 20; K28 side chain acylated with C18DA-gGlu-gGlu-gGlu-gGlu-gGlu-gGlu-eLys; C-terminal amide (NH2)) [Compound 265]"
  Metric name: "EC50 hGIPR 100% hP (CreLuc)"
  Recorded measurement: 0.79

Q: Given Y[Aib]EGTFTSDYSI[Aib]LEKQAQ[Aib]EFVEWLIK([AEEA-AEEA-γGlu-C18 diacid])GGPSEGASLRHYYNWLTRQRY-NH2 (also: TFA salt) [Compound 282] , respond with its EC50 hGIPR 100% hP (CreLuc).
Ans: 1.03

Q: Given Y[Aib]EGTFTSDYSI[Aib]LEKQAQ[Aib]AFVQWLIK([Glu-Glu-Glu-Glu-C18 diacid])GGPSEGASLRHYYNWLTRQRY-NH2 (also: TFA salt) [Compound 281] , respond with its EC50 hGIPR 100% hP (CreLuc).
Ans: 0.69

Q: Given Y[Aib]EGTFTSDYSI[Aib]LEKQAQ[Aib]AFVQWLIK([OEG-OEG-γGlu-γGlu-γGlu-C18 diacid])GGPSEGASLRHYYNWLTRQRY-NH2 (also: TFA salt) [Compound 266] , respond with its EC50 hGIPR 100% hP (CreLuc).
Ans: 0.65

Q: Given Y[Aib]EGTFTSDYSI[Aib]LEKQAQ[Aib]AFVEWLIK([εLys-γGlu-γGlu-γGlu-γGlu-γGlu-C18 diacid])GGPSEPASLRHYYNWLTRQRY-NH2 (also: TFA salt) [Compound 263] , respond with its EC50 hGIPR 100% hP (CreLuc).
Ans: 1.5

Q: Given Y[Aib]EGTFTSDYSI[Aib]LEKQAQ[Aib]EFVEWLIK([Ahx-γGlu-γGlu-γGlu-γGlu-γGlu-γGlu-C18 diacid])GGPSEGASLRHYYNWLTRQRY-NH2 (also: TFA salt) [Compound 279] , respond with its EC50 hGIPR 100% hP (CreLuc).
Ans: 1.76

Q: Given Y[Aib]EGTFTSDYSI[Aib]LEKQAQ[Aib]AFVEWLIK([AEEA-AEEA-γGlu-γGlu-γGlu-γGlu-C20 diacid])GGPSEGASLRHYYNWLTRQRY-NH2 (also: TFA salt) [Compound 287] , respond with its EC50 hGIPR 100% hP (CreLuc).
Ans: 2.42

Q: Given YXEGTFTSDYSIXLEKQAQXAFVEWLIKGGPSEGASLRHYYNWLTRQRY (Aib at 2, 13, 20; K28 side chain acylated with C18DA-gGlu-gGlu-gGlu-gGlu-gGlu-AHX; C-terminal amide (NH2)) [Compound 304] , respond with its EC50 hGIPR 100% hP (CreLuc).
Ans: 2.35

Q: Given Y[Aib]EGTFTSDYSI[Aib]LEKQAQ[Aib]AFVEWLIKGGPEEGASLRHYYNWLTRQRY-NH2 (not fully specified (residue 28); also: TFA salt) [Compound 285] , respond with its EC50 hGIPR 100% hP (CreLuc).
Ans: 1.54

Q: Given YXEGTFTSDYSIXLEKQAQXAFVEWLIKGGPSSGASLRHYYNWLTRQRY (Aib at 2, 13, 20; K28 side chain acylated with C18DA-gGlu-gGlu-gGlu-gGlu-gGlu-OEG-OEG; C-terminal amide (NH2)) [Compound 261] , respond with its EC50 hGIPR 100% hP (CreLuc).
Ans: 1.15

Q: Given Y[Aib]EGTFTSDYSI[Aib]LEKQAQ[Aib]AFVQWLIK([εLys-γGlu-γGlu-γGlu-γGlu-γGlu-C18 diacid])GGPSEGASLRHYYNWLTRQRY-NH2 (also: TFA salt) [Compound 267] , respond with its EC50 hGIPR 100% hP (CreLuc).
Ans: 1.18

Q: Given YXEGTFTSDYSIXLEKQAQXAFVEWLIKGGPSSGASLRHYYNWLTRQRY (Aib at 2, 13, 20; K28 side chain acylated with C18DA-gGlu-gGlu-gGlu-gGlu-gGlu-gGlu-eLys; C-terminal amide (NH2)) [Compound 259] , respond with its EC50 hGIPR 100% hP (CreLuc).
Ans: 0.91

Q: Given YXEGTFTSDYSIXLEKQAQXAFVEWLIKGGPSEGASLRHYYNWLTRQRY (Aib at 2, 13, 20; K28 side chain acylated with C20DA-gGlu-gGlu-gGlu-gGlu-gGlu-AHX; C-terminal amide (NH2)) [Compound 301] , respond with its EC50 hGIPR 100% hP (CreLuc).
Ans: 3.27

Q: Given YXEGTFTSDYSIXLEKQAQXAFVEWLIKGGPSEGASLRHYYNWLTRXRY (Aib at 2, 13, 20; bHGln (beta-homo-L-glutamine) at 47; K28 side chain acylated with C20DA-gGlu-gGlu-gGlu-gGlu-gGlu-gGlu-eLys; C-terminal amide (NH2)) [Compound 277] , respond with its EC50 hGIPR 100% hP (CreLuc).
Ans: 0.68

Q: Given Y[Aib]EGTFTSDYSI[Aib]LEKQAQ[Aib]AFIEWLIK([γGlu-γGlu-γGlu-γGlu-C20 diacid])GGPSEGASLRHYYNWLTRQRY-NH2 (also: TFA salt) [Compound 283] , respond with its EC50 hGIPR 100% hP (CreLuc).
Ans: 1.86
